Entry source: patent US20070224154A1

Tested on: IL-1 alpha secretion by cocultures of fibroblasts and keratinocytes
Experiment: IL-1 alpha assay: ELISA of IL-1α secreted by fibroblast/keratinocyte cocultures exposed to a surfactant irritant with botanical added
Format: cell-based, human
Experimental conditions: hand dishwashing detergent; average of 1%, 0.1%, 0.01%
Classification by Percent IL-1 α Reduction AVG follows these ranges: low range = under 10%, mid range = from 10% up to 20%, high range = 20% and over

Worked examples, 5 compounds total:
Compound	Class label
O=C1O[C@H]([C@@H](O)CO)C(O)=C1O	low range
O=C(O[C@@H]1Cc2c(O)cc(O)cc2O[C@@H]1c1cc(O)c(O)c(O)c1)c1cc(O)c(O)c(O)c1 [EGCG, epigallocatechin gallate]	mid range
CCCCCCCCCCCCCCCCCCOC(=O)[C@@]1(C)CC[C@]2(C)CC[C@]3(C)C(=CC(=O)[C@@H]4[C@@]5(C)CC[C@H](O)C(C)(C)[C@@H]5CC[C@]43C)[C@@H]2C1 [NET-STG, stearyl glycyrrhetinate]	mid range
CC(C)=CCC[C@](C)(O)[C@@H]1CC=C(C)CC1 [Alpha bisabolol, (−)-α-bisabolol]	low range
O=C(/C=C/c1ccc(O)c(O)c1)O[C@H](Cc1ccc(O)c(O)c1)C(=O)O	high range

Into which category would you place CC(=O)Oc1c(C)c(C)c2c(c1C)CCC(C)(CCC[C@H](C)CCC[C@H](C)CCCC(C)C)O2 (stereo partly shown) [Vitamin E acetate] ?
high range

Into which category would you place O=C1O[C@H]([C@@H](O)CO)C([O-])=C1OP(=O)([O-])[O-].O=C1O[C@H]([C@@H](O)CO)C([O-])=C1OP(=O)([O-])[O-].[Mg+2].[Mg+2].[Mg+2] [VC-PMG, Magnesium Ascorbyl Phosphate] ?
high range
